- Tgt: Hsp27 ΔNTD GPG (human) (UniProt P04792)
- Measurement description: ITC; peptide (1 mM) titrated into a cell with Hsp27 proteins (100 µM); SEC buffer (50 mM sodium phosphate, 100 mM NaCl); 25 °C; one-site binding model
Endpoint name: pKd
Entry type: numeric. Quantity: pKd, the -log10 of concentration in molar units.

[ask] Any idea what pKd was measured for EITIPVTHE [Hsp27 IPV H peptide (…)] ?
[reply] 4.84

Sourced from paper PMC6212398
